Reference source for all entries: PubChem BioAssay (NCI)

Tested on: SNB-19 CNS
Test Summary: NCI-60 one-dose screen, 48 h
Measurement Parameters: 10 µM unless noted
Compounds without any hit were thinned out: in the full panel of roughly 83,000, 20% have a hit. The source made the active and inactive calls. The calls were made as follows: active = growth percent below 10; inactive = the rest.
Outcome (select one): True (active), False (inactive)

Cc1nc2sc(C(=O)Nc3cccc(Br)c3C)c(N)c2cc1C(O)c1ccccc1 (stereo not given)
False
CC[C@]12C=CCN3CC[C@@]4(c5ccc(OC)cc5N(C)[C@H]4[C@@](O)(C(=O)OC)[C@@H]1OC(=O)CCC[P+](c1ccccc1)(c1ccccc1)c1ccccc1)[C@@H]32
False

IN: Per the records of this test, what outcome belongs to CCCCCCCCCCCCCCCCCC1=NC(C)(C)CN1CC(C)O (stereo not given) ?
OUT: False

IN: Per the records of this test, what outcome belongs to OCCNCCNC(Cc1ccc(Cl)cc1)c1ccccc1 (stereo not given) ?
OUT: False

IN: Per the records of this test, what outcome belongs to "CCOC(=O)c1c(C)nc2ccccc2c1/C=C/c1cccs1" ?
OUT: False

IN: Per the records of this test, what outcome belongs to "C=C1C(=O)O[C@H]2[C@H]1CC/C(CNC(=O)c1c[nH]c3ccc(F)cc13)=C\CC[C@@]1(C)O[C@@H]21" ?
OUT: False

IN: Per the records of this test, what outcome belongs to "O=C(O)c1cn(C2CC2)c2cc(N3CCN(C(=O)Nc4nc(-c5ccc(Br)cc5)cs4)CC3)c(F)cc2c1=O" ?
OUT: False

IN: Per the records of this test, what outcome belongs to "Fc1cccc(-c2ccc3c(c2)C2(CCNCC2)CN3)c1" ?
OUT: False

IN: Per the records of this test, what outcome belongs to "O=C(Nc1ncc(Cc2ccccc2)s1)c1ccc2c(c1)OCCCO2" ?
OUT: False

IN: Per the records of this test, what outcome belongs to "Oc1c(CN2CCOCC2)cc(COCc2ccccc2)c2cccnc12" ?
OUT: False

IN: Per the records of this test, what outcome belongs to "S=C(c1ccc2c(c1)OCO2)N1CCN(c2cccc(Cl)c2)CC1" ?
OUT: False

IN: Per the records of this test, what outcome belongs to "COc1cccc(/C=C/C(=O)c2cc3c(N)c(C(=O)Nc4cccc5ccccc45)sc3nc2C)c1" ?
OUT: True

IN: Per the records of this test, what outcome belongs to "COc1ccc2cc(-c3ccnc4c(N=Nc5ccc(Cl)cc5)c(N)nn34)ccc2c1" ?
OUT: False

IN: Per the records of this test, what outcome belongs to "Clc1c(Cl)[n+](Cc2ccc3ccccc3c2)cn1Cc1ccc2ccccc2c1" ?
OUT: False

###

Test system: NCI-H23 lung
Test Summary: NCI-60 one-dose screen, 48 h (100 = growth as untreated, 0 = no growth, -100 = all killed)
Measurement Parameters: 10 µM unless noted
The panel holds about 83,000 compounds, 20% with a hit somewhere; the sample as a whole holds those more often.
Recorded Endpoint: growth (%)
Numbers only, in %.

// worked examples, growth included
Nc1nc(N)c(N=Nc2ccccc2)c(-c2ccccc2)n1
65.4
CC1=C(C(=O)Nc2ccccc2)C(c2ccc3c(c2)OCO3)NC(=S)N1 (stereo not given)
97.9
C=C1CC[C@@H]2[C@](C)(COC(C)=O)[C@H](OC(C)=O)CC[C@@]2(C)[C@@H]1CC(Nc1ccc(S(=O)(=O)NC(C)=O)cc1)C1=CCOC1=O (stereo not given in full)
7.36

Give measured growth for every item shown.
1. Clc1c(Cl)[n+](Cc2ccc3ccccc3c2)cn1Cc1ccc2ccccc2c1
2. CCOC(=O)CC1CSC(Nc2ccccc2)=N1 (stereo not given)
3. COc1ccc(C(=O)Cn2c(C(=O)c3ccc(OC)cc3)nc3ccccc32)cc1

OUT:
1. 32.8
2. 98
3. 50.5

Give measured growth for every item shown.
1. CC1(C)C(N)=Nc2cc(OCCCN3Cc4ccccc4C3)c(OCC3CC3)cc21
2. C#Cc1cccc(Nc2nc(C)nc3cc(NC(=O)CCl)ccc23)c1
3. O=C(/C=C/c1ccc(Cl)cc1)c1cccc(OCCCOc2cccc(C(=O)/C=C/c3ccc(Cl)cc3)c2)c1
4. C=CCN1C(=O)c2cccc3c(N4CCOCC4)ccc(c23)C1=O

OUT:
93.5
-55.6
102
8.01
